- Assay explanation: in vitro
- Run conditions: human, uninfected SupT1 cells
Catalogue of compounds with associated CC50 at 48 h
Metric: CC50 at 48 h

CC1(C)Cc2cccc(OCC(=O)Nc3nc(C4CC4)cs3)c2O1 [Compound 5] ... > 100 µM
Cc1ccc(N(C(=O)COc2cccc3c2OC(C)(C)C3)c2ccc(C)nn2)cc1 [Compound 88] ... > 100 µM
CC1(C)Cc2cccc(OCC(=O)N(Cc3ccccn3)c3nc4c(F)cccc4s3)c2O1 [Compound 45] ... > 100 µM
Cc1ncccc1OCC(=O)N(C)c1nc2c(s1)CCCC2 [Compound 137] ... 12 µM
Cc1csc(N(Cc2ccccn2)C(=O)COc2cccc3c2OC(C)(C)C3)n1 [Compound 33] ... > 100 µM
CC1(C)Cc2cccc(CCC(=O)Nc3nc4c(F)cccc4s3)c2O1 [Compound 107] ... > 100 µM
Cc1cc(NC(=O)COc2cccc3c2OC(C)(C)C3)ncc1Cl [Compound 18] ... > 125 µM
CC1(C)Cc2cccc(OCC(=O)N(Cc3ncccn3)c3nc4c(s3)CCCC4)c2O1 [Compound 44] ... > 125 µM
COc1ccccc1OCC(=O)Nc1nc(C)cs1 [Compound 190] ... > 100 µM
CC1(C)Cc2cccc(OCC(=O)Nc3cncc4ccccc34)c2O1 [Compound 10] ... > 100 µM
COc1ccccc1OCC(=O)Nc1nc2c(Cl)cccc2s1 [Compound 188] ... > 100 µM
Cc1ccc(NC(=O)COc2cccc3c2OC(C)(C)C3)nc1 [Compound 177] ... > 100 µM
COc1ccccc1CCC(=O)Nc1nc2c(s1)CCCC2 [Compound 194] ... 125 µM
Cc1csc(N(Cc2cccnc2)C(=O)COc2cccc3c2OC(C)(C)C3)n1 [Compound 34] ... 12 µM
CC1(C)Cc2cccc(OCC(=O)Nc3cc4ccccc4cn3)c2O1 [Compound 17] ... > 125 µM
COc1ccccc1OCC(=O)N(C)c1nc2c(s1)CCCC2 [Compound 130] ... > 125 µM
CN(C(=O)COc1cccc2c1OC(C)(C)C2)c1ccc(Cl)nn1 [Compound 81] ... > 125 µM
C=Cc1ccc(N(C)C(=O)COc2cccc3c2OC(C)(C)C3)nn1 [Compound 82] ... > 125 µM
COc1ccccc1OCC(=O)Nc1nc2c(F)cccc2s1 [Compound 192] ... > 10 µM

Reference source for all entries: patent US20220411419A1
